# MEASUREMENT TARGET: BRD2-BD1 (Homo sapiens (Human))
# Sequence (P25440 74-180): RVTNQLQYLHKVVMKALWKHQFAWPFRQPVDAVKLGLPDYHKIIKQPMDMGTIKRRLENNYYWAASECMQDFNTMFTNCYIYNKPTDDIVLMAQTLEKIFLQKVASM
# EXPERIMENT NOTES: AlphaLisa bromodomain binding assay, BRD2-BD1
# STATED CONDITIONS: Table 6; read-out: BRD2(1) IC50
READOUT LABEL: log10(IC50) (log10 of the value in nM)
Transform log10 | Measure IC50 | Unit nM

Worked examples follow.
molecule=CC(C)(C)S(=O)(=O)Nc1cccc(-c2csc3cnc(Nc4ccc(N5CCNCC5)c(F)c4)nc23)c1 measurement_target="BRD2-BD1 (Homo sapiens (Human))" observed_result=2.70
molecule=Cc1cnc(Nc2ccc(C(=O)NC3CCN(C)CC3)c(F)c2)nc1Nc1ccc2c(c1)N(S(=O)(=O)C(C)(C)C)CC2 measurement_target="BRD2-BD1 (Homo sapiens (Human))" observed_result=2.20
molecule="CN1CCN(c2ccc(Nc3nc4c(c(Nc5cccc(NS(=O)(=O)C(C)(C)C)c5)n3)COC4)cc2)CC1 [drawing 206]" measurement_target="BRD2-BD1 (Homo sapiens (Human))" observed_result=3.25
molecule=CN(C)C1CCN(C(=O)c2ccc(Nc3ncc4ccn(-c5cccc(NS(=O)(=O)C(C)(C)C)c5)c4n3)cc2F)CC1 measurement_target="BRD2-BD1 (Homo sapiens (Human))" observed_result=2.50
molecule="CC(C)(C)S(=O)(=O)Nc1cccc(-n2ccc3cnc(Nc4ccc(C(=O)N5CCNCC5)c(F)c4)nc32)c1 [drawing 463]" measurement_target="BRD2-BD1 (Homo sapiens (Human))" observed_result=2.57

Asked: Look up and state reported log10(IC50) for `CNCCNC(=O)Cc1ccc(Nc2ncc3ccn(-c4cccc(NS(=O)(=O)C(C)(C)C)c4)c3n2)cc1`
Given back: 2.76

Asked: Look up and state reported log10(IC50) for CN(C)C1CCN(c2ccc(Nc3ncc4ccn(-c5cccc(NS(=O)(=O)C(C)(C)C)c5)c4n3)cc2)CC1 [drawing 317]
Given back: 2.80
